- assayed.target: AsPC-1 HiBiT-KRASG12D (Homo sapiens, UniProt P01116, G12D)
- Construct: insert the HiBiT tag onto the N-terminus of one or more of the endogenous KRAS alleles; endogenous in cells; host or cells: AsPC-1 (ATCC CRL-1682), CRISPR-Cas9 knock-in clone, one tagged allele
- Sequence (P01116 1-188 isoform P01116-2 G12D): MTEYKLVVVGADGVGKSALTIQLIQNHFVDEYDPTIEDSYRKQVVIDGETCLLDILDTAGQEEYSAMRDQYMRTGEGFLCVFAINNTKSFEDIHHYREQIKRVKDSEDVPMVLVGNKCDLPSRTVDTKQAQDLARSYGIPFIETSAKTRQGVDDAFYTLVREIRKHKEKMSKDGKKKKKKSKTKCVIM
- procedure.details: HiBiT degradation assay (G12D), AsPC-1 HiBiT-KRASG12D cells
- Format: cell-based
- protocol.conditions: AsPC-1 HiBiT-KRASG12D cells, 24 hours treatment, HiBiT luminescence
Record form. Attribute: DC50. Fill in for each entry.

Illustrative cases are given below, each with its answer.
CCc1cccc2cc(O)cc(-c3ncc4c(N5CC6CCC(C5)N6)nc(OCCN5CCC(F)(CN6CCN(c7cc([C@H](C(=O)N8C[C@H](O)C[C@H]8C(=O)N[C@@H](C)c8ccc(-c9scnc9C)cc8)C(C)C)on7)CC6)CC5)nc4c3F)c12 :: < 600 nM
CCc1cccc2cc(O)cc(-c3ncc4c(N5CC6CCC(C5)N6)nc(OCCN5CCC(O)(CC6CCN(c7cc([C@H](C(=O)N8C[C@H](O)C[C@H]8C(=O)N[C@@H](C)c8ccc(-c9scnc9C)cc8)C(C)C)on7)CC6)CC5)nc4c3F)c12 :: < 600 nM
CCc1cccc2cc(O)cc(-c3ncc4c(N5CC6CCC(C5)N6)nc(OC[C@@]56CCCN5[C@H](COC(=O)N5C[C@@H](C)N(c7cc([C@H](C(=O)N8C[C@H](O)C[C@H]8C(=O)N[C@@H](C)c8ccc(-c9scnc9C)cc8)C(C)C)on7)C[C@@H]5C)CC6)nc4c3F)c12 (stereo in doubt) :: < 600 nM

Fill in DC50 for each of the 5 compounds listed.
1. CCc1cccc2cc(O)cc(-c3ncc4c(N5CC6CCC(C5)N6)nc(OC[C@@]56CCCN5[C@H](COc5cc([C@@H](C(=O)N7C[C@H](O)C[C@H]7C(=O)N[C@@H](C)c7ccc(-c8scnc8C)cc7)C(C)C)on5)CC6)nc4c3F)c12
2. CCc1cccc2cc(O)cc(-c3ncc4c(N5CC6CCC(C5)N6)nc(OCCN5C[C@@H]6CN(c7cc([C@H](C(=O)N8C[C@H](O)C[C@H]8C(=O)N[C@@H](C)c8ccc(-c9scnc9C)cc8)C(C)C)on7)C[C@H]6C5)nc4c3F)c12 (relative stereo)
3. Cc1ccc2[nH]ncc2c1-c1ncc2c(N3CC4CCC(C3)N4)nc(OCCN3CCC(COc4cc([C@H](C(=O)N5C[C@H](O)C[C@H]5C(=O)N[C@@H](C)c5ccc(-c6scnc6C)cc5)C(C)C)on4)CC3)nc2c1F
4. C#Cc1c(F)ccc2cc(O)cc(-c3ncc4c(N5CC6CCC(C5)N6)nc(OC[C@@]56CCCN5[C@H](COC(=O)N5CCN(c7cc([C@H](C(=O)N8C[C@H](O)C[C@H]8C(=O)N[C@@H](C)c8ccc(-c9scnc9C)cc8)C(C)C)on7)CC5)CC6)nc4c3F)c12
5. CCc1cccc2cc(O)cc(-c3ncc4c(N5CC6CCC(C5)N6)nc(OC[C@]56CCCN5[C@H](COC(=O)N5C[C@H](C)N(c7cc([C@H](C(=O)N8C[C@H](O)C[C@H]8C(=O)N[C@@H](C)c8ccc(-c9scnc9C)cc8)C(C)C)on7)C[C@H]5C)CC6)nc4c3F)c12

["< 600 nM", "< 600 nM", "> 3000 nM", "< 600 nM", "< 600 nM"]

Cited source: patent US20250206732A1
